B1: library; a variant is named by its letters at N, in order (parent)
chain: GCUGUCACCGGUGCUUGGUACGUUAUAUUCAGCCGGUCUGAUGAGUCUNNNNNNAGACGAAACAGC

- Variants of: B1
- Test Name: FACS-Seq fitted mean relative fluorescence mCherry/BFP with ligand (log10 relative fluorescence); HEK293T overexpressing SLC46A1; ligand concentration (+) FACS-Seq: 6 mM; higher = higher reporter protein expression
- Conditions Used: with (6R,S)-folinic acid; ligand present: yes
# FACS-Seq fitted mean (log10) >= 0.4 gives condition met, anything below gives condition not met

Examples from the recorded data:
- Mutation Name: "AACUUG"
  Category Label: "condition met"
- Mutation Name: "GUCUUG"
  Category Label: "condition not met"
- Mutation Name: "GUCGAC"
  Category Label: "condition met"
- Mutation Name: "GUACUC"
  Category Label: "condition not met"
- Mutation Name: "ACCGUU"
  Category Label: "condition not met"

API: above_or_equal(metric=FACS-Seq fitted mean (log10), cutoff=0.4) for item AUGCGA
condition met

API: above_or_equal(metric=FACS-Seq fitted mean (log10), cutoff=0.4) for item CCCCUA
condition not met

API: above_or_equal(metric=FACS-Seq fitted mean (log10), cutoff=0.4) for item UGUUGA
condition met

API: above_or_equal(metric=FACS-Seq fitted mean (log10), cutoff=0.4) for item UACAUA
condition not met

API: above_or_equal(metric=FACS-Seq fitted mean (log10), cutoff=0.4) for item CGGGAC
condition not met

API: above_or_equal(metric=FACS-Seq fitted mean (log10), cutoff=0.4) for item GGAGUA
condition not met

API: above_or_equal(metric=FACS-Seq fitted mean (log10), cutoff=0.4) for item CAGGUA
condition not met

API: above_or_equal(metric=FACS-Seq fitted mean (log10), cutoff=0.4) for item AUAUUG
condition not met

API: above_or_equal(metric=FACS-Seq fitted mean (log10), cutoff=0.4) for item UGGAGG
condition met

API: above_or_equal(metric=FACS-Seq fitted mean (log10), cutoff=0.4) for item CGUAUA
condition not met

API: above_or_equal(metric=FACS-Seq fitted mean (log10), cutoff=0.4) for item UUGAGG
condition not met

API: above_or_equal(metric=FACS-Seq fitted mean (log10), cutoff=0.4) for item GCUAUA
condition met

API: above_or_equal(metric=FACS-Seq fitted mean (log10), cutoff=0.4) for item UACAGA
condition met

API: above_or_equal(metric=FACS-Seq fitted mean (log10), cutoff=0.4) for item UAGAGC
condition met

API: above_or_equal(metric=FACS-Seq fitted mean (log10), cutoff=0.4) for item CAGCUG
condition not met

API: above_or_equal(metric=FACS-Seq fitted mean (log10), cutoff=0.4) for item UUGAGA
condition met

API: above_or_equal(metric=FACS-Seq fitted mean (log10), cutoff=0.4) for item UGGACA
condition not met

API: above_or_equal(metric=FACS-Seq fitted mean (log10), cutoff=0.4) for item AGGGAG
condition not met

API: above_or_equal(metric=FACS-Seq fitted mean (log10), cutoff=0.4) for item GUAGUG
condition met

API: above_or_equal(metric=FACS-Seq fitted mean (log10), cutoff=0.4) for item ACAGAC
condition not met

API: above_or_equal(metric=FACS-Seq fitted mean (log10), cutoff=0.4) for item UACUGG
condition met

API: above_or_equal(metric=FACS-Seq fitted mean (log10), cutoff=0.4) for item UAGGGA
condition met

API: above_or_equal(metric=FACS-Seq fitted mean (log10), cutoff=0.4) for item AGAUGA
condition not met

API: above_or_equal(metric=FACS-Seq fitted mean (log10), cutoff=0.4) for item ACCUAG
condition not met

API: above_or_equal(metric=FACS-Seq fitted mean (log10), cutoff=0.4) for item UAAAGG
condition met

API: above_or_equal(metric=FACS-Seq fitted mean (log10), cutoff=0.4) for item GGGAUG
condition not met
